molecular target: PKM2 (Homo sapiens); assay: PKM2 activation biochemical assay (AC50 / max. response vs fructose 1,6-bisphosphate)
readout-kind: AC50 (nM)
Kindly provide the numeric value in nM only, without the unit symbol.

Solved cases below.
[[record]]
compound = "O=C(c1cc(C(F)(F)F)n[nH]1)N(CCC1CCS(=O)(=O)C1)Cc1cncs1 (centres unmarked)"
unit_descriptor = "nM"
endpoint_result = 49000

[[record]]
compound = "O=C(c1cc(Br)n[nH]1)N(Cc1ccc(O)cc1F)CC1CNC1"
unit_descriptor = "nM"
endpoint_result = 10400

[[record]]
compound = "O=C(c1cc(C(F)(F)F)n[nH]1)N(CCN1CCS(=O)(=O)CC1)Cc1ccccc1F"
unit_descriptor = "nM"
endpoint_result = 7800


# query: AC50 of entry CCCN(CC)CCN(Cc1c(N)cccc1Cl)C(=O)c1cc(C(F)(F)F)n[nH]1
32

Reported AC50, compound Nc1cccc(Cl)c1CN(CCN1CCCOCC1)C(=O)c1cc(C(F)(F)F)n[nH]1 : ____
115

* * *

Reported values of Max. Resp. (%) for individual entries
molecular target: UniProt P14618; test: PKM2 activation biochemical assay (AC50 / max. response vs fructose 1,6-bisphosphate); details: % maximum response in a biochemical assay as compared with Fructose 1,6-bisphosphate

Sample records with Max. Resp. (%):
[[record]]
molecule = "CCOCCN(Cc1ccc(O)cc1F)C(=O)c1cc(C(F)(F)F)n[nH]1"
readout_kind = "Max. Resp. (%)"
endpoint_result = "100%"

[[record]]
molecule = "O=C(c1cc(C(F)(F)F)n[nH]1)N(CCN1CCCCC1)Cc1ccccc1Cl"
readout_kind = "Max. Resp. (%)"
endpoint_result = "100%"

[[record]]
molecule = "CCN(CC)CCN(Cc1cccc2[nH]cnc12)C(=O)c1cc(C(F)(F)F)n[nH]1"
readout_kind = "Max. Resp. (%)"
endpoint_result = "100%"


Provide value of Max. Resp. (%) for this record tested with UniProt P14618: O=C(c1cc(C(F)(F)F)n[nH]1)N(Cc1cccc2[nH]ccc12)CC1COC1
101%

Observed Max. Resp. (%) on UniProt P14618 for COc1ccccc1C(=O)CCSC(=S)NCc1cccnc1 , please.
88%

* * *

biological target: UniProt P14618; assay: PKM2 activation biochemical assay (AC50 / max. response vs fructose 1,6-bisphosphate)
readout-kind: AC50 (nM)
Your answer should be a plain number; it is taken to be in nM.

Worked examples, 3 molecules total:
[[record]]
molecule = "O=C(c1cc(C(F)(F)F)n[nH]1)N(CCN1CCCCCC1)Cc1ccc(O)cc1F"
endpoint_result = 95

[[record]]
molecule = "CCN(CC)CCN(Cc1ccccc1Cl)C(=O)c1cc(Br)n[nH]1"
endpoint_result = 305

[[record]]
molecule = "O=C(c1cc(C(F)(F)F)n[nH]1)N(CCC1CCOC1)Cc1c(F)cccc1F (stereo not shown)"
endpoint_result = 1170


Requested read-out: AC50. Entry: O=C(c1cc(C(F)(F)F)n[nH]1)N(Cc1ccccc1Cl)CC1COC1
33000

* * *

molecular target: PKM2 (Homo sapiens, UniProt P14618); assay: PKM2 activation biochemical assay (AC50 / max. response vs fructose 1,6-bisphosphate); conditions: biochemical assay; read-out: PKM2 AC50
Sequence (P14618 whole entry): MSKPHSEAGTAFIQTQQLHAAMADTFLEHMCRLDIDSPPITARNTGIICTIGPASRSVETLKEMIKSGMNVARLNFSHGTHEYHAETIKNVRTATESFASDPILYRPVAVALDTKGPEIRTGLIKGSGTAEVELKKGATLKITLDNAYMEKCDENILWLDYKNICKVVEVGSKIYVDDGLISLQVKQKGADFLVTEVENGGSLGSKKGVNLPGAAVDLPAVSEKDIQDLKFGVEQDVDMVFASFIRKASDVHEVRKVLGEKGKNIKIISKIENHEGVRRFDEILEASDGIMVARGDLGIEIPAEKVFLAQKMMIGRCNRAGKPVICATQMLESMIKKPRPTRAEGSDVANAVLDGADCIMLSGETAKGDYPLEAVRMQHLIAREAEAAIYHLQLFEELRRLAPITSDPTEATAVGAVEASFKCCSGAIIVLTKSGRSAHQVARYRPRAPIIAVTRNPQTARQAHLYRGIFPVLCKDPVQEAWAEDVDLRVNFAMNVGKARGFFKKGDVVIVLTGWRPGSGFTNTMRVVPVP
readout-kind: AC50

Example cases with answers are listed next.
[[record]]
compound = "O=C(c1cc(C(F)(F)F)n[nH]1)N(CCc1ccc(O)cc1)Cc1ccccc1Cl [Compound 230]"
test_target = "PKM2 (Homo sapiens, UniProt P14618)"
endpoint_result = "12000 nM"

[[record]]
compound = "O=C(c1cc(C(F)(F)F)n[nH]1)N(CCC1CCSCC1)Cc1ccccc1Cl [Compound 73]"
test_target = "PKM2 (Homo sapiens, UniProt P14618)"
endpoint_result = "1340 nM"

[[record]]
compound = "O=C(c1cc(C(F)(F)F)n[nH]1)N(CCN1CCCC1)Cc1ccccc1F [Compound 158]"
test_target = "PKM2 (Homo sapiens, UniProt P14618)"
endpoint_result = "265 nM"


Fill in the blank: the reported AC50 of O=C(c1cc(C(F)(F)F)n[nH]1)N(CCC1CCCO1)Cc1ccccc1F (stereo not shown) [Compound 46] is ____.
13400 nM

Can you share its AC50? I mean this compound: O=C(c1cc(C(F)(F)F)n[nH]1)N(CCC1CCS(=O)(=O)C1)Cc1ncccc1Cl (stereo not shown) [Compound 92]
1290 nM

So what does the record say about AC50 for O=C(CCSC(=S)NCc1cccnc1)c1cccnc1 [PMA29] ?
3700 nM

What measured AC50 goes with O=C(c1cc(Br)n[nH]1)N(Cc1ccc(O)cc1Cl)CC1CCC1 [Compound 125] ?
35 nM

Data request, read-out AC50, for CC1CCN(CCN(Cc2ccccc2Cl)C(=O)c2cc(C(F)(F)F)n[nH]2)CC1 [Compound 190]
42 nM

* * *

Each entry below carries its recorded Max. Resp. (%).
target: UniProt:P14618; test: PKM2 activation biochemical assay (AC50 / max. response vs fructose 1,6-bisphosphate); conditions: % maximum response in a biochemical assay as compared with Fructose 1,6-bisphosphate
Answer by giving the amount and then stating its unit.

As a guide, the following entries are already answered.
[[record]]
compound = "O=C(c1cc(Br)n[nH]1)N(Cc1ccc(O)cc1F)CC1CNC1"
test_target = "UniProt:P14618"
endpoint_result = "61%"

[[record]]
compound = "Nc1cccc(CN(CCN2CCCCCC2)C(=O)c2cc(C(F)(F)F)n[nH]2)c1F"
test_target = "UniProt:P14618"
endpoint_result = "100%"

[[record]]
compound = "O=C(c1cc(C(F)(F)F)n[nH]1)N(Cc1ccccc1Cl)C1CCOCC1"
test_target = "UniProt:P14618"
endpoint_result = "59%"


Return reported Max. Resp. (%); argument: COc1cc(C(=O)CCSC(=S)NCc2cccnc2)cc(OC)c1OC
131%

Report Max. Resp. (%) for O=C(c1cc(C(F)(F)F)n[nH]1)N(CCN1CCCC1)Cc1cccc2[nH]cc(F)c12 please.
100%

Need Max. Resp. (%), item O=C(c1cc(C(F)(F)F)n[nH]1)N(CCC1CCS(=O)(=O)C1)Cc1cccc([N+](=O)[O-])c1Cl (stereo not shown)
69%

Query: Max. Resp. (%); subject: O=C(c1cc(Cl)n[nH]1)N(Cc1cccc2[nH]cnc12)CC1CCC1
100%

* * *

biological target: PKM2 (Homo sapiens); assay: PKM2 activation biochemical assay (AC50 / max. response vs fructose 1,6-bisphosphate)
Decision: AC50 beneath 4000 nM gives YES; AC50 meeting or exceeding 4000 nM gives NO.

[[record]]
compound = "CNCc1c[nH]c2cccc(CN(CC3CCC3)C(=O)c3cc(Br)n[nH]3)c12"
answer_label = "NO"

[[record]]
compound = "O=C(c1cc(C(F)(F)F)n[nH]1)N(CCC1CCOC1)Cc1ccccc1Cl (centres unmarked)"
answer_label = "YES"

[[record]]
compound = "O=C(c1cc(C(F)(F)F)n[nH]1)N(Cc1ccccc1Cl)C1CCOCC1"
answer_label = "NO"

[[record]]
compound = "Nc1ccccc1CN(CCC1CCS(=O)(=O)C1)C(=O)c1cc(C(F)(F)F)n[nH]1 (centres unmarked)"
answer_label = "NO"

[[record]]
compound = "O=C(c1cc(C(F)(F)F)n[nH]1)N(CCN1CCCCCC1)Cc1cccc([N+](=O)[O-])c1Cl"
answer_label = "YES"

[[record]]
compound = "N#Cc1cc(C(=O)N(Cc2ccc(O)cc2F)CC2CCC2)[nH]n1"
answer_label = "YES"


Does CCN(CC)CCN(Cc1ccccc1F)C(=O)c1cc(C(F)(F)F)n[nH]1 have AC50 strictly under 4000 nM?
YES

Is it true that AC50 reported for O=C(c1cc(Cl)n[nH]1)N(CCC1CCSCC1)Cc1ccccc1F is less than 4000 nM?
YES

* * *

molecular target: UniProt:P14618; assay: PKM2 activation biochemical assay (AC50 / max. response vs fructose 1,6-bisphosphate); conditions: biochemical assay; read-out: PKM2 AC50
readout-kind: AC50 (µM)
Numbers only; they are read as µM.

The cases that follow already have their AC50 on record.
[[record]]
molecule = "O=C(c1cc(C(F)(F)F)n[nH]1)N(Cc1ccncc1Cl)CC1CCC1 [Compound 128]"
test_target = "UniProt:P14618"
unit_descriptor = "µM"
endpoint_result = 9.3

[[record]]
molecule = "CO[C@H]1CC[C@H](N(Cc2ccccc2F)C(=O)c2cc(C(F)(F)F)n[nH]2)CC1 [Compound 47]"
test_target = "UniProt:P14618"
unit_descriptor = "µM"
endpoint_result = 0.435

[[record]]
molecule = "O=C(c1cc(C(F)(F)F)n[nH]1)N(CCC1CCC2(CC1)OCCO2)Cc1ccccc1F [Compound 59]"
test_target = "UniProt:P14618"
unit_descriptor = "µM"
endpoint_result = 0.494

[[record]]
molecule = "O=C(c1cc(C(F)(F)F)n[nH]1)N(Cc1ccccc1F)CC1CCOC1 (stereo not drawn) [Compound 150]"
test_target = "UniProt:P14618"
unit_descriptor = "µM"
endpoint_result = 16

[[record]]
molecule = "CC(CN(Cc1ccccc1Cl)C(=O)c1cc(C(F)(F)F)n[nH]1)N1CCCC1 (stereo not drawn) [Compound 181]"
test_target = "UniProt:P14618"
unit_descriptor = "µM"
endpoint_result = 0.43


Form: Entry = O=C(c1cc(C(F)(F)F)n[nH]1)N(CCN1CCCCCC1)Cc1c(F)cccc1F [Compound 198] | System = UniProt:P14618 | AC50 = ____
0.13

Look up AC50 with UniProt:P14618 for this molecule: CO[C@H]1CC[C@H](N(Cc2cccc(F)c2)C(=O)c2cc(C(F)(F)F)n[nH]2)CC1 [Compound 48]
8.58

Form field: AC50 recorded for O=C(c1cc(C(F)(F)F)n[nH]1)N(CCC1CCCOC1)Cc1ccccc1Cl (stereo not drawn) [Compound 36] with UniProt:P14618 (enter value)
1.22

Tell me reported AC50 for CCN(CC)CCN(Cc1ccccc1C(C)C)C(=O)c1cc(C(F)(F)F)n[nH]1 [Compound 184] , tested with UniProt:P14618.
1.95
